Hey, just so you know, these numbers are from patent US6500842B1.

target.or.test.system: CMV polymerase (Human cytomegalovirus, UniProt P08546)
Construct: made in house; host or cells: recombinant baculovirus-infected SF-9 cells
Sequence (P08546 whole entry): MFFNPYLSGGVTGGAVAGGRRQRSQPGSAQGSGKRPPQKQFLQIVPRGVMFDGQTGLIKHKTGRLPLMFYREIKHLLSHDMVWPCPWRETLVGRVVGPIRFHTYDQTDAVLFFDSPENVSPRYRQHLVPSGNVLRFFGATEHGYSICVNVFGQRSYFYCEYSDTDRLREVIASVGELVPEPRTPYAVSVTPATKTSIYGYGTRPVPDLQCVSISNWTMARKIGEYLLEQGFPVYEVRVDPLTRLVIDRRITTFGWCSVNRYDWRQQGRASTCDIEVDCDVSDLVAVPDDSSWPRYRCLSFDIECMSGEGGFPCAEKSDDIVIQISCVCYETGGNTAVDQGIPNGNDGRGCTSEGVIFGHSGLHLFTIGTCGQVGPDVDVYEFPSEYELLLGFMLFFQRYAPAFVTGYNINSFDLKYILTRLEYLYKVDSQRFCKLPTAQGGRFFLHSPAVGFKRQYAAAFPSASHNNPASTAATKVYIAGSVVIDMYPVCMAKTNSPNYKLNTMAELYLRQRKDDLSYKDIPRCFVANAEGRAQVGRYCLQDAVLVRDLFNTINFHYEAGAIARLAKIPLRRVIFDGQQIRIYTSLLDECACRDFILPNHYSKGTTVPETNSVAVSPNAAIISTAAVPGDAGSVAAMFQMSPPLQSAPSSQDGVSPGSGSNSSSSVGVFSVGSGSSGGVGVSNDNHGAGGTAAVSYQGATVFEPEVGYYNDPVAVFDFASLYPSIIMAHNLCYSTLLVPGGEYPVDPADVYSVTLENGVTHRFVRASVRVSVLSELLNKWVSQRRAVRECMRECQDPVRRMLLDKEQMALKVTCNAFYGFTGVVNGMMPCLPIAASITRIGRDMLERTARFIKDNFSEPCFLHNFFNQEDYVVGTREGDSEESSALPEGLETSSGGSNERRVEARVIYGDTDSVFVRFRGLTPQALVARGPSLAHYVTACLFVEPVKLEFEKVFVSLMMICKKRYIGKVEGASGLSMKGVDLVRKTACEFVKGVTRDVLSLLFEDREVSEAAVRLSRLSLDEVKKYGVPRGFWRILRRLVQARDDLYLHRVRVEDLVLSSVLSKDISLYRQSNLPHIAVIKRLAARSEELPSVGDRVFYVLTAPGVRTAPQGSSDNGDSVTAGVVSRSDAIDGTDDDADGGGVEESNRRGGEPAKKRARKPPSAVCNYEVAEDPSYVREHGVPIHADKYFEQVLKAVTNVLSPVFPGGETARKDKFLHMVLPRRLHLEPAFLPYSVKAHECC
experimental.details: modified version of the HCMV polymerase assay (100% DMSO dilution, DTT, different enzyme lot)
Format: biochemical
details: Concentration 25 μM; Table 6
property.label: inhibition at 25 µM (%)
All answers are understood in %, so give the number only.

Use these answered entries as a reference point.
>>> result("Cc1ccc2c(Cl)cc(S(=O)(=O)NCc3ccccn3)c(O)c2n1")
0
>>> result("O=S(=O)(NCCSc1ccccc1)c1cc(Cl)c2ccc(/C=C/c3ccccc3)nc2c1O")
71
>>> result("Cc1ccc2c(Cl)cc(S(=O)(=O)NCCc3ccccn3)c(O)c2n1")
10

Q: Output measured inhibition at 25 µM for this item: Cc1ccc2c(Cl)cc(S(=O)(=O)NCCc3ccc(NS(=O)(=O)c4c(C)noc4C)cc3)c(O)c2n1
Result: -21

Q: Output measured inhibition at 25 µM for this item: Cc1ccc2c(Cl)cc(S(=O)(=O)NCCCCc3ccccc3)c(O)c2n1
Result: 30

Q: Output measured inhibition at 25 µM for this item: Cc1ccc2c(Cl)cc(S(=O)(=O)NCCc3ccc(NS(=O)(=O)c4ccccc4)cc3)c(O)c2n1
Result: 57

Q: Output measured inhibition at 25 µM for this item: Cc1ccc2c(Cl)cc(S(=O)(=O)NCCc3ccc(Cl)cc3)c(O)c2n1
Result: 32
